Tested on: MDCK p60AmotL2-inducible + doxycycline (p60AmotL2 expressing)
Test: drug sensitivity score (DSS) from 5-dose viability curve (DSS (area-based score, 0 = no response)); higher = more sensitive (stronger viability inhibition); extreme values may be limits of the assay
Settings: doxycycline: 10 ng/mL; 72 h
Decision: drug sensitivity score compared against 8; not below it gives TRUE, below it gives FALSE.

| molecule | class.assignment |
| --- | --- |
| CO[C@@H](C(=O)N1Cc2[nH]nc(NC(=O)c3ccc(N4CCN(C)CC4)cc3)c2C1)c1ccccc1 [Danusertib] | TRUE |
| COc1cc2nccc(Oc3ccc(NC(=O)C4(C(=O)Nc5ccc(F)cc5)CC4)cc3)c2cc1OC [Cabozantinib] | FALSE |
| CCS(=O)(=O)Nc1ccc(Oc2ccc(F)cc2F)c(-c2cn(C)c(=O)c3[nH]ccc23)c1 [Mivebresib] | TRUE |
| O=C(O)c1ccc(-c2c[nH]c3ncc(-c4ccccc4)cc23)cc1C1CCCC1 | FALSE |
| O=c1[nH]c(=O)n([C@H]2C[C@H](O)[C@@H](CO)O2)cc1F [Floxuridine] | TRUE |
| Cc1nc(Nc2n[nH]c3c2CN(C(=O)N[C@H](CN(C)C)c2ccccc2)C3(C)C)c2sccc2n1 | TRUE |
| C/C(=C\c1csc(C)n1)[C@@H]1C[C@@H]2O[C@]2(C)CCC[C@H](C)[C@H](O)[C@@H](C)C(=O)C(C)(C)[C@@H](O)CC(=O)N1 [Ixabepilone] | FALSE |
| C[C@H]1C[C@@H](n2c(Nc3ccc(OC(F)(F)F)cc3)nc3cc(CCC(=O)O)ccc32)CC(C)(C)C1 | FALSE |
